# Test system: MOLM14
# assay.summary: cell viability relative to vehicle control; higher = less cytotoxic;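 note: after 48 h exposure read by CellTiter-Glo luminescence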
# experimental.parameters: 10 µM; SRSF2 genotype: SRSF2 P95H/wt
Counter-ions that a name gives are not always drawn.
Threshold 90%. cell viability below it: Criterion met. cell viability at it or above: Criterion not met.

{"columns": ["compound", "class.assignment"],
 "data": [
  ["C[C@H](CC[C@@]1(O)O[C@H]2C[C@H]3[C@@H]4CC=C5C[C@@H](O[C@@H]6O[C@H](CO)[C@@H](O[C@@H]7O[C@@H](C)[C@H](O)[C@@H](O)[C@H]7O)[C@H](O)[C@H]6O[C@@H]6O[C@@H](C)[C@H](O)[C@@H](O)[C@H]6O)CC[C@]5(C)[C@H]4CC[C@]3(C)[C@H]2[C@@H]1C)CO[C@@H]1O[C@H](CO)[C@@H](O)[C@H](O)[C@H]1O", "Criterion met"],
  ["CCc1cnn2c(NCc3ccc[n+]([O-])c3)cc(N3CCCC[C@H]3CCO)nc12", "Criterion met"],
  ["CCCCOc1cc(C(=O)NCCN(CC)CC)c2ccccc2n1 [Dibucaine (Cinchocaine) HCl]", "Criterion met"],
  ["N#Cc1c(Oc2ccc(F)c(NC(=O)Cc3cccc(C(F)(F)F)c3)c2)ccc2nc(NC(=O)C3CC3)sc12", "Criterion met"],
  ["CC(C)(C(=O)O)c1ccc(C(O)CCCN2CCC(C(O)(c3ccccc3)c3ccccc3)CC2)cc1 (stereo not drawn) [Fexofenadine HCl]", "Criterion not met"],
  ["CC#C[C@]1(O)CC[C@H]2[C@@H]3CCC4=CC(=O)CCC4=C3[C@@H](c3ccc(N(C)C)cc3)C[C@@]21C", "Criterion met"],
  ["CC(C)c1cnn2c(NCc3ccccc3-n3cccn3)nc(OC3CCCNC3)nc12 (stereo not drawn)", "Criterion met"],
  ["Cc1cc(C(=O)Nc2nc3cccc(Cl)c3n2[C@@H]2CCCCN(C(=O)/C=C/CN(C)C)C2)ccn1 [Nazartinib (EGF816, NVS-816)]", "Criterion met"],
  ["COC(=O)C1=C(C)NC(C)=C(C(=O)OCCN2CCN(C(c3ccccc3)c3ccccc3)CC2)C1c1cccc([N+](=O)[O-])c1 (stereo not drawn) [Manidipine (Manyper)]", "Criterion met"],
  ["Oc1c(F)cc(-c2cnccc2-c2ccc(N3CCOCC3)cc2)cc1F", "Criterion met"],
  ["CCOC(=O)N[C@@H]1CC[C@@H]2[C@@H](C1)C[C@H]1C(=O)O[C@H](C)[C@H]1[C@H]2/C=C/c1ccc(-c2cccc(F)c2)cn1", "Criterion met"],
  ["COc1ccc(C2CC(=O)c3c(O)cc(OC4OC(COC5OC(C)C(O)C(O)C5O)C(O)C(O)C4O)cc3O2)cc1OC (stereo not drawn)", "Criterion not met"],
  ["C=CCc1ccc(O)c(-c2cc(CC=C)ccc2O)c1", "Criterion not met"],
  ["CC(C)CCCC(C)CCCC(C)CCCCC(C)CCCC(C)CCCC(C)C (stereo not drawn)", "Criterion not met"],
  ["NCCOCCOCCNC(=O)Cc1ccc(Nc2nc(NCc3ccc(F)cc3)nc(NCC3CCCCC3)n2)cc1 [AP-III-a4 (ENOblock)]", "Criterion met"],
  ["CC[C@H](C)C(=O)O[C@H]1C[C@H](O)C=C2C=C[C@H](C)[C@H](CC[C@@H](O)C[C@@H](O)CC(=O)O)[C@H]21 [Pravastatin sodium]", "Criterion not met"],
  ["COC(c1ccccc1)(c1ccccc1)[C@H](Oc1nc(C)cc(C)n1)C(=O)O", "Criterion not met"],
  ["C[C@H](CCC(=O)O)[C@H]1CC[C@H]2[C@@H]3[C@H](O)C[C@@H]4C[C@H](O)CC[C@]4(C)[C@H]3C[C@H](O)[C@]12C [Cholic acid]", "Criterion not met"],
  ["COc1ccccc1OCCN", "Criterion not met"],
  ["C[C@@H]1C(=O)O[C@H](C)[C@H]1C[C@@H](O)[C@](C)(O)[C@H]1CC[C@@]2(O)C3=CC(=O)[C@@H]4C[C@@H](O)[C@@H](O)C[C@]4(C)[C@H]3CC[C@]12C", "Criterion not met"],
  ["CC(C)S(=O)(=O)c1ccc2nccc(Nc3ccc4scnc4c3)c2c1", "Criterion met"],
  ["COc1ccc(C[C@@H]2c3cc(Oc4cc(C[C@@H]5c6cc(OC)c(OC)cc6CCN5C)ccc4O)c(OC)cc3CCN2C)cc1", "Criterion not met"],
  ["Cn1c(Nc2ccc(C(F)(F)F)cc2)nc2cc(Oc3ccnc(-c4ncc(C(F)(F)F)[nH]4)c3)ccc21", "Criterion met"],
  ["CC1(C)S[C@@H]2[C@H](NC(=O)C(C(=O)O)c3ccccc3)C(=O)N2[C@H]1C(=O)O (stereo partly drawn) [Carbenicillin disodium]", "Criterion not met"],
  ["C#C[C@]1(O)CC[C@H]2[C@@H]3CCC4=CC(=O)CC[C@@H]4[C@H]3CC[C@@]21C", "Criterion not met"],
  ["Oc1ccc(-c2c(-c3ccccc3)nn3c(C(F)(F)F)cc(C(F)(F)F)nc23)cc1", "Criterion met"],
  ["CC(C)(c1ccc(OCC(O)CO)cc1)c1ccc(OCC(O)CCl)cc1 (stereo not drawn)", "Criterion met"],
  ["CN(C)C(=O)COC(=O)Cc1ccc(OC(=O)c2ccc(NC(=N)N)cc2)cc1 [Camostat Mesilate (FOY-305)]", "Criterion not met"]
]}

====

Each record here notes measured cell viability.
# System: OCI-AML2
# assay.summary: cell viability relative to vehicle control; higher = less cytotoxic
# experimental.parameters: 10 µM; SRSF2 genotype: P95H/wt
Counter-ions that a name gives are not always drawn.
experimental.readout: cell viability (%)

{"columns": ["compound", "experimental.readout", "measure.unit", "test.result"],
 "data": [
  ["CC1CCC2(O)C(C)(C)C3CCC2(C)C1C3 (centres undefined)", "cell viability", "%", 80.6],
  ["COc1cc2c(cc1OC)[C@@H]1Cc3ccc(OC)c(OC)c3CN1CC2 [Tetrahydropalmatine hydrochloride]", "cell viability", "%", 103],
  ["CCN(CC)CCOC(=O)c1ccc(N)cc1 [Procaine (Novocaine) HCl]", "cell viability", "%", 93.2],
  ["N#Cc1ccc2[nH]c(O)c(-c3ccc(CN4CCOCC4)cn3)c2c1", "cell viability", "%", 98.7],
  ["O=C(O)P(=O)(O)O [Foscarnet Sodium]", "cell viability", "%", 112],
  ["CCC(C)C1OC2(CCC1C)CC1CC(CC=C(C)C(OC3CC(OC)C(OC4CC(OC)C(O)C(C)O4)C(C)O3)C(C)C=CC=C3COC4C(O)C(C)=CC(C(=O)O1)C34O)O2 (centres undefined)", "cell viability", "%", 4.65],
  ["CN(Cc1ccc(C(C)(C)C)cc1)Cc1cccc2ccccc12 [Butenafine HCl]", "cell viability", "%", 85.5],
  ["c1cc(-c2cnn3cc(-c4ccc(OCCN5CCCCC5)cc4)cnc23)ccn1", "cell viability", "%", 33.1],
  ["Nc1ccn([C@H]2CC[C@@H](CO)O2)c(=O)n1", "cell viability", "%", 58.7]
]}

====

# Test system: OCI-AML2
# assay.summary: cell viability relative to vehicle control; higher = less cytotoxic
# experimental.parameters: 10 µM; SRSF2 genotype: P95H/wt
experimental.readout: cell viability (%)

{"columns": ["molecule", "measurement.target", "measure.unit", "test.result"],
 "data": [
  ["C=CC(=O)Nc1cccc(Nc2nc(Nc3ccc(N4CCN(C(C)=O)CC4)cc3OC)ncc2C(F)(F)F)c1", "OCI-AML2", "%", 10.2],
  ["C[C@H](CCC(=O)O)[C@H]1CC[C@H]2[C@@H]3[C@H](O)C[C@@H]4C[C@H](O)CC[C@]4(C)[C@H]3C[C@H](O)[C@]12C [Sodium cholate]", "OCI-AML2", "%", 88],
  ["O=[N+]([O-])c1ccc(Sc2cccc[n+]2[O-])c2nonc12", "OCI-AML2", "%", 0.28],
  ["O=C(O)c1ccc(NC(=O)[C@H](Cc2ccc(O)cc2)NC(=O)c2ccccc2)cc1 [bentiromide]", "OCI-AML2", "%", 110]
]}

====

# Test system: MARIMO
# assay.summary: cell viability relative to vehicle control; higher = less cytotoxic
# experimental.parameters: 10 µM; SRSF2 genotype: SRSF2 wt/wt
Threshold 30%. cell viability below it: met. cell viability at it or above: not met.

{"columns": ["compound", "class.assignment"],
 "data": [
  ["CC1(COc2ccc3c(c2)ncn3-c2ccc3cccc(N4CCC(N)CC4)c3n2)COC1", "met"],
  ["Cn1cc(C(=O)Nc2ccc3c(c2)OCCO3)c2ccccc2c1=O", "not met"],
  ["O=C(O)CCCNC(=O)c1cccnc1", "not met"],
  ["COc1ccc(C2CC(=O)c3c(O)cc(OC4OC(COC5OC(C)C(O)C(O)C5O)C(O)C(O)C4O)cc3O2)cc1OC (stereo not drawn)", "not met"],
  ["CCCCCCCCCCCCCCCC(=O)N[C@@H](CCSC)C(=O)NCC(=O)N[C@@H](Cc1ccc(O)cc1)C(=O)N[C@@H](CCC(N)=O)C(=O)N[C@@H](CCCCN)C(=O)N[C@@H](CCCCN)C(=O)N[C@@H](CC(C)C)C(=O)N[C@@H](CCCNC(=N)N)C(=O)N[C@@H](CO)C(=O)N[C@@H](CCSC)C(=O)N[C@H](C(=O)N[C@@H](CC(=O)O)C(=O)N[C@@H](CCCCN)C(=O)N[C@@H](Cc1ccc(O)cc1)C(=O)N[C@@H](CCCNC(=N)N)C(=O)N[C@@H](CC(C)C)C(=O)O)[C@@H](C)O", "not met"],
  ["COC(=O)C[C@](O)(CCCC(C)(C)O)C(=O)O[C@@H]1C(OC)=C[C@]23CCCN2CCc2cc4c(cc2[C@H]13)OCO4", "met"],
  ["CCOC(=O)CCNc1cc(N2CCc3ccccc3CC2)nc(-c2ccccn2)n1", "met"],
  ["COc1cccc2c1C(=O)c1c(O)c3c(c(O)c1C2=O)C[C@@](O)(C(=O)CO)C[C@@H]3O[C@H]1C[C@H](N)[C@H](O[C@@H]2CCCCO2)[C@H](C)O1", "met"]
]}

Ref: the supplement of paper PMC10981050
